Answer each item with its documented Emax.
species: Rattus norvegicus; assay: Positive allosteric modulation of recombinant N-terminal poly-His tagged rat neurolysin using Mca-Pro-Leu- Gly-Pro-D-Lys(DNP)-OH as substrate assessed as Amax and measured by fluorescence based assay relative to control; conditions: filed as positive allosteric modulator
Give bare numbers, in %.

Worked cases, answers included:
compound | Emax (%)
N[C@@H](Cc1c[nH]cn1)C(=O)NCc1ccc(C(F)(F)F)cc1 | 305
NC(Cc1c[nH]cn1)C(=O)NCCc1cc2ccccc2[nH]1 (racemic) | 311

For every item below, please supply its Emax.
1. N[C@@H](Cc1c[nH]cn1)C(=O)NCCc1ccc(C(F)(F)F)cc1
2. N[C@H](Cc1c[nH]cn1)C(=O)NCCc1ccc2ccccc2c1

1. 438
2. 340
